assay-summary: in vitro
condition: human
measured-property: viability at 50 µM (%)
The reply should contain only the number, in %.

Look over these answered cases.
C[C@]12CC=CCC1CCC1C2CC[C@]2(C)[C@@H](c3ccc(=O)oc3)CC[C@]12O (stereo partly shown) | 5.62
C[C@]12CCC=CC1CCC1C2CC[C@]2(C)[C@@H](c3ccc(=O)oc3)CC[C@]12O (stereo partly shown) | 11.5
C[C@@H]1O[C@@H](O[C@H]2C[C@@H](O)[C@]3(CO)[C@H]4[C@H](O)C[C@]5(C)[C@@H](C6=CC(=O)OC6)CC[C@]5(O)[C@@H]4CC[C@]3(O)C2)[C@H](O)[C@H](O)[C@H]1O | 0.51

Here is the next item to consider.
In: Any idea what its viability at 50 µM is? The compound is C[C@H]1O[C@@H](O[C@H]2[C@@H](O)C[C@H](O[C@H]3[C@@H](O)C[C@H](O[C@H]4CC[C@@]5(C)[C@H](CC[C@@H]6[C@@H]5C[C@@H](O)[C@]5(C)[C@@H](C7=CC(=O)OC7)CC[C@]65O)C4)O[C@@H]3C)O[C@@H]2C)C[C@H](O)[C@@H]1O
Out: 0.26
